The reported measurements were obtained from paper PMC8203602.

Experiment: Plasma pharmacokinetics, single ascending dose cohorts
Assay type: in vivo, human
Conditions: human, plasma, oral, 50 mg
Value Kind: Tmax (h)

Molecule	Assay Result
Cc1cnc(-c2ccnc(C(C)(C)O)n2)cc1-n1c(C)cc(OCc2ncc(F)cc2F)c(Cl)c1=O [ATI-450]	3

###

Assay: Plasma pharmacokinetics, multiple ascending dose cohorts
Assay type: in vivo, human
Settings: human, plasma, oral, 10 mg
Value Kind: Vd/F

Cc1cnc(-c2ccnc(C(C)(C)O)n2)cc1-n1c(C)cc(OCc2ncc(F)cc2F)c(Cl)c1=O 517 L

###

Assay: Plasma pharmacokinetics, single ascending dose cohorts
Type: in vivo, human
Settings: human, plasma, oral, 30 mg
Value Kind: AUC(0-t) (ng·h/mL)

Compound	Assay Result
Cc1cnc(-c2ccnc(C(C)(C)O)n2)cc1-n1c(C)cc(OCc2ncc(F)cc2F)c(Cl)c1=O [ATI-450]	1070

###

Experiment: Plasma pharmacokinetics, multiple ascending dose cohorts
Format: in vivo, human
Settings: human, plasma, oral, Mean terminal t1/2 across doses, 10 to 50 mg BID, day 7
Value Kind: half-life

Cc1cnc(-c2ccnc(C(C)(C)O)n2)cc1-n1c(C)cc(OCc2ncc(F)cc2F)c(Cl)c1=O 9 to 12 h

###

Experiment: Plasma pharmacokinetics, multiple ascending dose cohorts
Format: in vivo, human
Details: human, plasma, oral, 10 mg
Value Kind: AUC(0-t) (ng·h/mL)

Cc1cnc(-c2ccnc(C(C)(C)O)n2)cc1-n1c(C)cc(OCc2ncc(F)cc2F)c(Cl)c1=O 365

###

Assay: Plasma pharmacokinetics, single ascending dose cohorts
Type: in vivo, human
Details: human, plasma, oral, 30 mg
Value Kind: Tmax

Cc1cnc(-c2ccnc(C(C)(C)O)n2)cc1-n1c(C)cc(OCc2ncc(F)cc2F)c(Cl)c1=O 4 h

###

Test: Plasma pharmacokinetics, multiple ascending dose cohorts
Format: in vivo, human
Details: human, plasma, oral, 10 mg, tmax, 10 mg BID, day 7; median (range)
Value Kind: Tmax at 7 day (h)

Cc1cnc(-c2ccnc(C(C)(C)O)n2)cc1-n1c(C)cc(OCc2ncc(F)cc2F)c(Cl)c1=O 2

###

Test: Plasma pharmacokinetics, multiple ascending dose cohorts
Assay type: in vivo, human
Settings: human, plasma, oral, 10 mg, t1/2, 10 mg BID, day 7; mean ± SD
Value Kind: half-life

Cc1cnc(-c2ccnc(C(C)(C)O)n2)cc1-n1c(C)cc(OCc2ncc(F)cc2F)c(Cl)c1=O 9.6 h

###

Assay: Plasma pharmacokinetics, single ascending dose cohorts
Assay type: in vivo, human
Conditions: human, plasma, oral, 30 mg
Value Kind: Vd/F

Cc1cnc(-c2ccnc(C(C)(C)O)n2)cc1-n1c(C)cc(OCc2ncc(F)cc2F)c(Cl)c1=O 451 L

###

Assay: Plasma pharmacokinetics, multiple ascending dose cohorts
Format: in vivo, human
Settings: human, plasma, oral, 50 mg
Value Kind: AUC(0-t) (ng·h/mL)

Compound	Endpoint Unit	Assay Result
Cc1cnc(-c2ccnc(C(C)(C)O)n2)cc1-n1c(C)cc(OCc2ncc(F)cc2F)c(Cl)c1=O [ATI-450]	ng·h/mL	2260

###

Test: Plasma pharmacokinetics, multiple ascending dose cohorts
Type: in vivo, human
Settings: human, plasma, oral, 50 mg
Value Kind: concentration at 7 day (ng/mL)

Cc1cnc(-c2ccnc(C(C)(C)O)n2)cc1-n1c(C)cc(OCc2ncc(F)cc2F)c(Cl)c1=O 126

###

Experiment: Plasma pharmacokinetics, multiple ascending dose cohorts
Format: in vivo, human
Details: human, plasma, oral, 30 mg
Value Kind: concentration at 7 day (ng/mL)

Cc1cnc(-c2ccnc(C(C)(C)O)n2)cc1-n1c(C)cc(OCc2ncc(F)cc2F)c(Cl)c1=O 75.6
